Source of measurements: ChEMBL document CHEMBL3271969

Target: Xanthine dehydrogenase/oxidase (Bos taurus)
Sequence (P80457 whole entry): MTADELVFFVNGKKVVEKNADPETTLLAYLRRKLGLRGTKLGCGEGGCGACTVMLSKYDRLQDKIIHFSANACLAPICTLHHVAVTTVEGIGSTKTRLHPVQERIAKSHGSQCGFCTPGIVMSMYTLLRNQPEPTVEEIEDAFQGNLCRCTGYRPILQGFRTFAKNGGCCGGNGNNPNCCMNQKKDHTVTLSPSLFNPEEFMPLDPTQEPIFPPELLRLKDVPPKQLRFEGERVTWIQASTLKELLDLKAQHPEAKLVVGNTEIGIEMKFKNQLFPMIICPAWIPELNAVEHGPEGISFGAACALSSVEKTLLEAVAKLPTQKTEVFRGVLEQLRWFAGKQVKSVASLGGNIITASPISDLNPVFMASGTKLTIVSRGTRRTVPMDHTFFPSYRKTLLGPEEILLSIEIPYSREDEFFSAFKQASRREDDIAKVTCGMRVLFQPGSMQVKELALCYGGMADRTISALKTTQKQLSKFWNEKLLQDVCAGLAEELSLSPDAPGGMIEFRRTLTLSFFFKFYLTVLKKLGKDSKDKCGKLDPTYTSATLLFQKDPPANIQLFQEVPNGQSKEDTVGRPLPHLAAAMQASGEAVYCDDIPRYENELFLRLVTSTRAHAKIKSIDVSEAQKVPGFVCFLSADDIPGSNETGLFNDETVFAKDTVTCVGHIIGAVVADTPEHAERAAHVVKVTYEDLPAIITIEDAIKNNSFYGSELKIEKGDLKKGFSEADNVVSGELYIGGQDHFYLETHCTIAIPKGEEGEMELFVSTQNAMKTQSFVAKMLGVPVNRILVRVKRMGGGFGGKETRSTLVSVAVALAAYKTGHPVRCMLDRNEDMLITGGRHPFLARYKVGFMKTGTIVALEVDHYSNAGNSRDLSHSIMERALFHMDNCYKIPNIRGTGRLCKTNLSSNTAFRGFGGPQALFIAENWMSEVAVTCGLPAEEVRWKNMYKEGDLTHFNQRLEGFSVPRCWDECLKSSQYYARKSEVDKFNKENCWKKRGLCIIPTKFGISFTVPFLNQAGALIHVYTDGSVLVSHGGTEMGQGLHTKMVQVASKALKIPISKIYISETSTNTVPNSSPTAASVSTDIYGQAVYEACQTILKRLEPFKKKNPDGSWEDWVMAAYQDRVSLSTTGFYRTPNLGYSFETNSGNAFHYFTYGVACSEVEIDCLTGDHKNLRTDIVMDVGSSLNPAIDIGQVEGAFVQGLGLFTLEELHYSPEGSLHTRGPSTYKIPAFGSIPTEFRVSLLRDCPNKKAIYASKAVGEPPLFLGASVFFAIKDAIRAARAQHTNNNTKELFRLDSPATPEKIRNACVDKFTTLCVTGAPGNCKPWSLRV
Assay: Inhibition of bovine xanthine oxidase at 2 X 10^-5 M
Settings: cattle
Can you tell me inhibition at 20 µM for the items I'm about to list?
Quick reminder: number only, in %, skip the unit.

Qu. Hello, please tell me recorded inhibition at 20 µM for this one: "Clc1nc(-c2cccnc2)[nH]c1Cl"
Ans. 29

Qu. Hello, please tell me recorded inhibition at 20 µM for this one: "O=C(O)c1cnc(-c2ccncc2)[nH]1"
Ans. 34

Qu. Hello, please tell me recorded inhibition at 20 µM for this one: "c1cncc(-c2nc3cnccc3[nH]2)c1"
Ans. 23

Qu. Hello, please tell me recorded inhibition at 20 µM for this one: "NC(=O)c1nc(-c2ccncc2)[nH]c1C(N)=O"
Ans. 14

Qu. Hello, please tell me recorded inhibition at 20 µM for this one: "COC(=O)c1cnc(-c2ccncc2)[nH]1"
Ans. 10
